Recorded % Suppression vs. Vehicle values for a group of compounds are listed next.
testedOn: mouse TLR7 (Mus musculus, UniProt P58681)
Sequence (P58681 27-1050): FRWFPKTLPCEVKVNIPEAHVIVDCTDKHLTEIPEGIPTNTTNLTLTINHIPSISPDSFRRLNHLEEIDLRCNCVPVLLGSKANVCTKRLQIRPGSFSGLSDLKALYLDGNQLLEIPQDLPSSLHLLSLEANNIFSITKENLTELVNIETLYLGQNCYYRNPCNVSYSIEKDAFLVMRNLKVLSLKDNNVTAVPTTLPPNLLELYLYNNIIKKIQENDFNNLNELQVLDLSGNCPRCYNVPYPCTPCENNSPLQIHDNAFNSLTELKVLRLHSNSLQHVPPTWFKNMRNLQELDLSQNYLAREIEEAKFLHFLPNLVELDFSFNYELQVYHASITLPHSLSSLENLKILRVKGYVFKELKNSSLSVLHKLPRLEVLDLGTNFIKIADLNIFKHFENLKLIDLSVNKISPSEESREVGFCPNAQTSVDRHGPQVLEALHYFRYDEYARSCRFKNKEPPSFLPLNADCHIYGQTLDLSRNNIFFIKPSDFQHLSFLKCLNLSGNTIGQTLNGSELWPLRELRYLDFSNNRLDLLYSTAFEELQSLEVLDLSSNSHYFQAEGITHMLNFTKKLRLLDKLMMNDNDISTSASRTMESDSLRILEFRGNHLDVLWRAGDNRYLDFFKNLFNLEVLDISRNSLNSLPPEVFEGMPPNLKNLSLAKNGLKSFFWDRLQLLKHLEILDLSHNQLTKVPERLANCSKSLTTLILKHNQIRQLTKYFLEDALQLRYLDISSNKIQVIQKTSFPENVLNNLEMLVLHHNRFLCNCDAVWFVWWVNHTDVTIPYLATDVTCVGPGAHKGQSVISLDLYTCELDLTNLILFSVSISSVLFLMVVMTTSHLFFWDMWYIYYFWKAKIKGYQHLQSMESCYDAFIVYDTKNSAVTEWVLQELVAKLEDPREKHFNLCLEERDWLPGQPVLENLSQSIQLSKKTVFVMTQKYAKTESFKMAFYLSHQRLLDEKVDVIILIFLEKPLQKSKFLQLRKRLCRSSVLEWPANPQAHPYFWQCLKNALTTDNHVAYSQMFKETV
test: Short-term in vivo (STIV) assay: oral dosing, R848 s.c., plasma IL-6
Parameters: female BALB/c mice (Jackson Labs, Bar Harbor, Me.) were dosed by oral gavage; tissue Jackson Labs; host or cells: living female BALB/c mice; plasma IL-6 after s.c. R848
runParameters: 6 h; 33 mg/kg
Quick note: give the figure in %, leave out the unit.

Problem: Query % Suppression vs. Vehicle on mouse TLR7 (Mus musculus, UniProt P58681) for CC1CN(c2ccc(C#N)c3ncccc23)CC(CN2CC(N3CCCCC3)C2)O1 (stereo not drawn)
Result: 96

Problem: Next up: CC1CN(c2ccc(C#N)c3ncccc23)CC(C(=O)NCC2CCCN2)O1 (stereo not drawn)
Result: 0

Problem: Next entry: C[C@@H]1CN(c2ccc(C#N)c3ncccc23)C[C@H](CN2CCCN(C)CC2)O1
Result: 95

Problem: Next entry: C[C@@H]1CN(c2ccc(C#N)c3ncccc23)C[C@H](CNC2CCCC2)O1
Result: 91

Problem: Likewise for CC1CN(c2ccc(C#N)c3ncccc23)CC(CN2CCNCC2C)O1 (stereo not drawn) ?
Result: 98

Problem: Subsequent entry: CC1CN(c2ccc(C#N)c3ncccc23)CC(CN2CCC(NC(=O)C(C)C)CC2)O1 (stereo not drawn)
Result: 94

Problem: Would you mind doing C[C@@H]1CN(c2ccc(C#N)c3ncccc23)C[C@H](CNc2ccccn2)O1 as well?
Result: 0

Problem: Likewise for C[C@@H]1CN(c2ccc(C#N)c3ncccc23)C[C@H](CN2CCC(N3CCN(C)CC3)CC2)O1 ?
Result: 82

Problem: Can you handle C[C@@H]1CN(C[C@H]2CN(c3ccc(C#N)c4ncccc34)C[C@@H](C)O2)CCN1 next?
Result: 95

###

testedOn: human TLR8 (Homo sapiens, UniProt Q9NR97)
Construct: host or cells: HEK-293, then stably transfected with pNiFty2(NF-kappaB)-luciferase reporter
Sequence (Q9NR97 27-1041): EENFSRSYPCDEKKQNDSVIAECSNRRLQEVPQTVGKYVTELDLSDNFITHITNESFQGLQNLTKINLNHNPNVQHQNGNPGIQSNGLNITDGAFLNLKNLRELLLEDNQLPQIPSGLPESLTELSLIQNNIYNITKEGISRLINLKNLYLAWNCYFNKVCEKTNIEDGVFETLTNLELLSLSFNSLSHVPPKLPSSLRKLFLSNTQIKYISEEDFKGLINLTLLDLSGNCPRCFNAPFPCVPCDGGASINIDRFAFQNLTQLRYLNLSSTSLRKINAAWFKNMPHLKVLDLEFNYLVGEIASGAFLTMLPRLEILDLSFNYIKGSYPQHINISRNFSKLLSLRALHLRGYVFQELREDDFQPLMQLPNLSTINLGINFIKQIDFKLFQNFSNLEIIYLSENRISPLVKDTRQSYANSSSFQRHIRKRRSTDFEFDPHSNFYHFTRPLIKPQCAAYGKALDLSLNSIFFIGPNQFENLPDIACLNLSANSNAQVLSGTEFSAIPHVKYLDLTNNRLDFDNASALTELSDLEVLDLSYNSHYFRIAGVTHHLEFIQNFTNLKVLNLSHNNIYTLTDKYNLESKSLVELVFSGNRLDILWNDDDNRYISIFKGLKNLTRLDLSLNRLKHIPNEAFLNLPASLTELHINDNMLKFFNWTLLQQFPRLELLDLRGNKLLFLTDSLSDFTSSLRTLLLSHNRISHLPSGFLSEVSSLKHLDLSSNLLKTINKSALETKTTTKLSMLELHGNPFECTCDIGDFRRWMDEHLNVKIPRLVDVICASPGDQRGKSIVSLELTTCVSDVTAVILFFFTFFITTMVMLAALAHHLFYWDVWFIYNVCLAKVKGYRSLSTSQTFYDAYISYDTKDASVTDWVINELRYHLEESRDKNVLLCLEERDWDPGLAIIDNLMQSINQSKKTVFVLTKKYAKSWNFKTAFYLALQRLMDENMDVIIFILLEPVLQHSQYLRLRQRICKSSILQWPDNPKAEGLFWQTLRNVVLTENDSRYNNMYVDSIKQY
test: HEK-293 human TLR8 NF-kappaB luciferase reporter assay (CL097)
Assay type: cell-based
runParameters: HEK-293 assay format; read-out: HEK/hTLR8 IC50
readoutKind: pIC50
Here pIC50 is given on a logarithmic scale as minus log10 of the concentration in mol/L.

Below: 5 molecules and their reported pIC50.
In [3]: df
Out[3]:
                                   molecule  measvalue
0  CC[C@H]1CN(C[C@H]2CN(c3ccc(C#N)c4ncccc34)C[C@@H](C)O2)CCN1       8.55
1  C[C@@H]1CN(c2ccc(C#N)c3ncccc23)C[C@H](CN2CCC(F)(F)CC2)O1       6.94
2  C[C@@H]1CN(c2ccc(C#N)c3ncccc23)C[C@H](CN2CCC(C)(C)C2)O1       6.79
3  COC[C@H]1CN(c2ccc(C#N)c3ncccc23)C[C@@H](C)O1       7.26
4  C=CC(O)[C@H]1CN(c2ccc(C#N)c3ncccc23)C[C@@H](C)O1 (single isomer, unassigned)       7.51

Problem: Please tell me: pIC50 of CC(C)COC[C@H]1CN(c2ccc(C#N)c3ncccc23)C[C@@H](C)O1 , system human TLR8 (Homo sapiens, UniProt Q9NR97)?
Result: 7.43
